Assay: Half life in acidic aqueous conditions at pH 2
Type: physicochemical
Details: acidic aqueous solution

- compound: "COc1ccc(C2Nc3cccc(O)c3C(=O)N2Cc2ccccc2)cc1COc1ccc(NC(C)=O)cc1 (stereo unspecified)"
  half-life [h]: 3

====

Target: Thyrotropin receptor (Homo sapiens, UniProt P16473)
Sequence (P16473 whole entry): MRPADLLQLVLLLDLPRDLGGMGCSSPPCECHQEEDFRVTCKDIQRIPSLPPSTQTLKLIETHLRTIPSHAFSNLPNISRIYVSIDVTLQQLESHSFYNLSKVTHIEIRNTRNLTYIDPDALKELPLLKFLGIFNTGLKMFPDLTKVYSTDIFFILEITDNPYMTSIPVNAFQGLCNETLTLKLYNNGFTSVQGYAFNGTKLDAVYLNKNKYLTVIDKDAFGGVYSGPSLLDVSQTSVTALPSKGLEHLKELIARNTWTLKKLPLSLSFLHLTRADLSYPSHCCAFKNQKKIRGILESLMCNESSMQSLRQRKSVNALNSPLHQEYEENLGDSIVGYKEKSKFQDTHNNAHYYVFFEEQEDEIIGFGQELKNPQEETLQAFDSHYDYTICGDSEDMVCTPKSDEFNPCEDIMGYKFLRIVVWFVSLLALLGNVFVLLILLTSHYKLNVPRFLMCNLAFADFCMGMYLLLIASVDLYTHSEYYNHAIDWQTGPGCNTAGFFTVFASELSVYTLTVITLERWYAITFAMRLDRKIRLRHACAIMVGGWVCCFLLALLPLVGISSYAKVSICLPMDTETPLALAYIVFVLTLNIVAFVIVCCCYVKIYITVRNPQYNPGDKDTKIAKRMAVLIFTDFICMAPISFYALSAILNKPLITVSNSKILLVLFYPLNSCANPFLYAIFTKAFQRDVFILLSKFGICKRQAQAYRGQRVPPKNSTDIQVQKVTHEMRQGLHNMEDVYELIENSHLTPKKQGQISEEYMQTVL
Assay: Agonist activity at TSHR (unknown origin) transiently transfected HEK-EM293 cells assessed as cAMP level after 1 hr by ELISA
Type: functional, cell-based
result_type: EC50 (nM)

- compound: "COc1ccc(C2Nc3ccccc3C(=O)N2Cc2ccccc2)cc1COc1ccccc1 (stereo not given)"
  result_type: "EC50"
  unit_descriptor: "nM"
  quantitative_readout: 2570
- compound: "COc1ccc(C2Nc3ccccc3C(=O)N2Cc2ccccc2)cc1COc1ccc(NC(C)=O)cc1 (stereo not given)"
  result_type: "EC50"
  unit_descriptor: "nM"
  quantitative_readout: 290
- compound: "COc1ccc(C2Nc3ccccc3C(=O)N2Cc2ccco2)cc1COc1ccc(NC(C)=O)cc1 (stereo not given)"
  result_type: "EC50"
  unit_descriptor: "nM"
  quantitative_readout: 1160
- compound: "COc1ccc(C2Nc3ccccc3C(=O)N2Cc2ccccc2)cc1COc1cccc(NC(C)=O)c1 (stereo not given)"
  result_type: "EC50"
  unit_descriptor: "nM"
  quantitative_readout: 4340
- compound: "COc1ccc(-c2nc3ccccc3c(=O)n2Cc2ccco2)cc1COc1ccc(NC(C)=O)cc1"
  result_type: "EC50"
  unit_descriptor: "nM"
  quantitative_readout: 930
- compound: "CC(=O)Nc1ccc(OCc2cccc(C3Nc4ccccc4C(=O)N3Cc3ccccc3)c2)cc1 (stereo not given)"
  result_type: "EC50"
  unit_descriptor: "nM"
  quantitative_readout: 1860
- compound: "COc1ccc(C2Nc3ccc(O)cc3C(=O)N2Cc2ccccc2)cc1COc1ccc(NC(C)=O)cc1 (stereo not given)"
  result_type: "EC50"
  unit_descriptor: "nM"
  quantitative_readout: 330
- compound: "COc1ccc(C2Nc3cccc(OC)c3C(=O)N2Cc2ccccc2)cc1COc1ccc(NC(C)=O)cc1 (stereo not given)"
  result_type: "EC50"
  unit_descriptor: "nM"
  quantitative_readout: 4480
- compound: "COc1ccc(C2Nc3ccccc3C(=O)N2Cc2ccccc2)cc1CSc1ccc(NC(C)=O)cc1 (stereo not given)"
  result_type: "EC50"
  unit_descriptor: "nM"
  quantitative_readout: 80
- compound: "COc1ccc(C2Nc3ccccc3C(=O)N2c2ccccc2)cc1COc1ccc(NC(C)=O)cc1 (stereo not given)"
  result_type: "EC50"
  unit_descriptor: "nM"
  quantitative_readout: 5090

====

Target: Thyrotropin receptor (Homo sapiens, UniProt P16473)
Assay: Agonist activity at TSHR (unknown origin) transiently transfected HEK-EM293 cells assessed as cAMP level after 1 hr by ELISA
Format: functional, cell-based
Overview of recorded log10 EC50 for various compounds
result_type: log10 EC50 (log10 of the value in nM)

- compound: "COc1ccc(OCc2cc(C3Nc4ccccc4C(=O)N3Cc3ccccc3)ccc2OC)cc1 (centres undefined)"
  quantitative_readout: 3.33
- compound: "COc1ccc(-c2nc3cccc(O)c3c(=O)n2Cc2ccccc2)cc1COc1ccc(NC(C)=O)cc1"
  quantitative_readout: 2.74
- compound: "COc1ccc(-c2nc3ccccc3c(=O)n2Cc2ccccc2)cc1COc1ccc(NC(C)=O)cc1"
  quantitative_readout: 2.98
- compound: "COc1ccc(C2Nc3cccc(F)c3C(=O)N2Cc2ccccc2)cc1COc1ccc(NC(C)=O)cc1 (centres undefined)"
  quantitative_readout: 2.45
- compound: "CCCCN1C(=O)c2ccccc2NC1c1ccc(OC)c(COc2ccc(NC(C)=O)cc2)c1 (centres undefined)"
  quantitative_readout: 2.92
- compound: "COc1ccc(C2Nc3cccc(O)c3C(=O)N2Cc2ccccc2)cc1COc1ccc(NC(C)=O)cc1 (centres undefined)"
  quantitative_readout: 1.95
- compound: "COc1ccc(C2Nc3cccc(O)c3C(=O)N2Cc2ccccc2)cc1CSc1ccc(NC(C)=O)cc1 (centres undefined)"
  quantitative_readout: 1.26
- compound: "COc1ccc(C2Nc3ccccc3C(=O)N2CCc2ccccc2)cc1COc1ccc(NC(C)=O)cc1 (centres undefined)"
  quantitative_readout: 2.63
- compound: "COc1ccc(C2Nc3ccccc3C(=O)N2Cc2ccncc2)cc1COc1ccc(NC(C)=O)cc1 (centres undefined)"
  quantitative_readout: 3.60

====

Molecular target: Thyrotropin receptor (Homo sapiens, UniProt P16473)
Assay: Agonist activity at TSHR (unknown origin)
result_type: EC50

- sample_smiles: "COc1cccc(-c2nc(SC)nc3sc(C(=O)NC(C)(C)C)c(N)c23)c1"
  system_name: "Thyrotropin receptor (Homo sapiens, UniProt P16473)"
  result_type: "EC50"
  result: "7.7 µM"
